Hey, just so you know, these numbers are from patent US9526785B2.

- measurement.notes: Tigecycline plasma PK and % F after intraduodenal (ID) injection in anesthetized rats
- Type: in vivo, Sprague-Dawley Rats
- particulars: female, Sprague-Dawley, rat, plasma, other: intraduodenal bolus injection, 9 mg/kg, pH 3.5, ID, 100 mM CA (pH 3.5), 26 mM LLC, 9.0 mg/kg (RA853); 20 min
readout.label: concentration at 20 min (ng/mL)
Use ng/mL as the unit, but write only the number.

Query :: concentration at 20 min lookup needed for CN(C)c1cc(NC(=O)CNC(C)(C)C)c(O)c2c1C[C@H]1C[C@H]3[C@H](N(C)C)C(O)=C(C(N)=O)C(=O)[C@@]3(O)C(O)=C1C2=O [Tigecycline] , thanks.
Result :: 1980

---

- measurement.notes: Tigecycline plasma PK and % F after PO enteric-coated capsule in dogs
- Type: in vivo, Beagle dogs
- particulars: female, beagle, dog, plasma, po, 15 mg, PO 15 mg enteric-coated capsule with 500 mg CA and 100 mg LLC (SC424); read-out: % F, range of individual dogs
readout.label: bioavailability

Query :: What value of bioavailability has been reported for the following compound? CN(C)c1cc(NC(=O)CNC(C)(C)C)c(O)c2c1C[C@H]1C[C@H]3[C@H](N(C)C)C(O)=C(C(N)=O)C(=O)[C@@]3(O)C(O)=C1C2=O [Tigecycline]
Result :: 2 to 30%

---

- measurement.notes: Tigecycline plasma PK and % F after intraduodenal (ID) injection in anesthetized rats
- Format: in vivo, Sprague-Dawley Rats
- particulars: female, Sprague-Dawley, rat, plasma, […], RA869, ID, 400 mM CA/26 mM LLC
readout.label: AUC(0-t) (ng·h/mL)
Return type: number; implicit unit ng·h/mL.

Query :: What value of AUC(0-t) has been recorded for this entry: "CN(C)c1cc(NC(=O)CNC(C)(C)C)c(O)c2c1C[C@H]1C[C@H]3[C@H](N(C)C)C(O)=C(C(N)=O)C(=O)[C@@]3(O)C(O)=C1C2=O"
Result :: 222

---

- measurement.notes: Tigecycline plasma PK and % F after intraduodenal (ID) injection in anesthetized rats
- Format: in vivo, Sprague-Dawley Rats
- particulars: female, Sprague-Dawley, rat, plasma, 4.8 mg/kg, pH 3.5, RA867, ID, 400 mM CA/26 mM LLC pH 3.5, 4.8 mg/kg; read-out: % F, mean
readout.label: bioavailability (%)
Respond numerically; units are % and should not be typed.

Query :: Can you look up the measured bioavailability of CN(C)c1cc(NC(=O)CNC(C)(C)C)c(O)c2c1C[C@H]1C[C@H]3[C@H](N(C)C)C(O)=C(C(N)=O)C(=O)[C@@]3(O)C(O)=C1C2=O [Tigecycline] for me?
Result :: 7.7

---

- measurement.notes: Tigecycline plasma PK and % F after intraduodenal (ID) injection in anesthetized rats
- Type: in vivo, Sprague-Dawley Rats
- particulars: female, Sprague-Dawley, rat, plasma, 4.8 mg/kg, RA861, ID, 400 mM CA alone, mean dose 4.8 mg/kg; read-out: % F, mean
readout.label: bioavailability (%)
Write the number in % without appending the unit.

Query :: Request the reported bioavailability associated with "CN(C)c1cc(NC(=O)CNC(C)(C)C)c(O)c2c1C[C@H]1C[C@H]3[C@H](N(C)C)C(O)=C(C(N)=O)C(=O)[C@@]3(O)C(O)=C1C2=O"
Result :: 0.3

---

- measurement.notes: Tigecycline plasma PK after IV bolus in anesthetized rats
- Type: in vivo
- particulars: female, Sprague-Dawley, rat, RA869, IV, 0.6 mg/kg
readout.label: Tmax (min)
Give the quantity in min, number only.

Query :: Form field: reported Tmax of "CN(C)c1cc(NC(=O)CNC(C)(C)C)c(O)c2c1C[C@H]1C[C@H]3[C@H](N(C)C)C(O)=C(C(N)=O)C(=O)[C@@]3(O)C(O)=C1C2=O"
Result :: 7.5

---

- measurement.notes: Tigecycline plasma PK and % F after PO enteric-coated capsule in dogs
- Type: in vivo, Beagle dogs
- particulars: female, beagle, dog, plasma, po, 45 mg, PO 45 mg enteric-coated capsule with 500 mg CA and 100 mg LLC ([…]), SC430; mean; read-out: Cmax
readout.label: Cmax (ng/mL)
Write the answer as a number in ng/mL, unit excluded.

Query :: Consider the molecule shown here: CN(C)c1cc(NC(=O)CNC(C)(C)C)c(O)c2c1C[C@H]1C[C@H]3[C@H](N(C)C)C(O)=C(C(N)=O)C(=O)[C@@]3(O)C(O)=C1C2=O [Tigecycline] What is its recorded Cmax?
Result :: 177

---

- measurement.notes: Tigecycline plasma PK and % F after PO enteric-coated capsule in dogs
- Type: in vivo, Beagle dogs
- particulars: female, beagle, dog, plasma, po, 45 mg, Tigecycline Plasma Concentration, Time (min) 24.0; PO 45 mg enteric-coated capsule with 500 mg CA and 100 mg LLC, SC430; mean
readout.label: concentration at 24 min (ng/mL)
Only the number, expressed in ng/mL, is required.

Query :: For the compound shown here, "CN(C)c1cc(NC(=O)CNC(C)(C)C)c(O)c2c1C[C@H]1C[C@H]3[C@H](N(C)C)C(O)=C(C(N)=O)C(=O)[C@@]3(O)C(O)=C1C2=O" , give the reported concentration at 24 min.
Result :: 0

---

- measurement.notes: Tigecycline plasma PK and % F after PO enteric-coated capsule in dogs
- Assay type: in vivo, Beagle dogs
- particulars: female, beagle, dog, plasma, po, 45 mg, target dose 45 mg, enterically coated capsule; read-out: Observed Mean Cmax
readout.label: Cmax (ng/mL)
API: value field is a number in ng/mL; no unit string.

Query :: Any idea what Cmax was measured for "CN(C)c1cc(NC(=O)CNC(C)(C)C)c(O)c2c1C[C@H]1C[C@H]3[C@H](N(C)C)C(O)=C(C(N)=O)C(=O)[C@@]3(O)C(O)=C1C2=O" ?
Result :: 177

---

- measurement.notes: Tigecycline plasma PK and % F after intraduodenal (ID) injection in anesthetized rats
- Assay type: in vivo, Sprague-Dawley Rats
- particulars: female, Sprague-Dawley, rat, plasma, 4.6 mg/kg, RA861, ID, 400 mM CA/26 mM LLC, mean dose 4.6 mg/kg
readout.label: Tmax (min)
API: value field is a number in min; no unit string.

Query :: Suppose we examine the compound CN(C)c1cc(NC(=O)CNC(C)(C)C)c(O)c2c1C[C@H]1C[C@H]3[C@H](N(C)C)C(O)=C(C(N)=O)C(=O)[C@@]3(O)C(O)=C1C2=O [Tigecycline] ; what Tmax value has been reported?
Result :: 10

---

- measurement.notes: Tigecycline plasma PK and % F after intraduodenal (ID) injection in anesthetized rats
- Format: in vivo, Sprague-Dawley Rats
- particulars: female, Sprague-Dawley, rat, plasma, other: intraduodenal bolus injection, 4.8 mg/kg, pH 3.5, ID, 400 mM CA (pH 3.5), 26 mM LLC, 4.8 mg/kg (RA851), parent Tigecycline peak only; 60 min
readout.label: concentration at 60 min (ng/mL)
Write the number in ng/mL without appending the unit.

Query :: Which concentration at 60 min is reported for this compound? "CN(C)c1cc(NC(=O)CNC(C)(C)C)c(O)c2c1C[C@H]1C[C@H]3[C@H](N(C)C)C(O)=C(C(N)=O)C(=O)[C@@]3(O)C(O)=C1C2=O"
Result :: 455

---

- measurement.notes: Tigecycline plasma PK and % F after intraduodenal (ID) injection in anesthetized rats
- Type: in vivo, Sprague-Dawley Rats
- particulars: female, Sprague-Dawley, rat, plasma, other: intraduodenal bolus injection, 4.8 mg/kg, ID, PBS, 4.8 mg/kg (RA851); 0 min
- Method: Animals weighed approximately 250 g at the time of testing. Rats were fasted overnight (with water available), prior to dosing. Intravenous (IV) doses were administered as a bolus injection into the left carotid […] at a dose volume of 1.6 mL/kg. […] Female rats were maintained in groups of 3 per polycarbonate (or equivalent) shoebox cage with fresh wood chip bedding at 20-22° C. under a 12 hour on/off light:dark cycle. […] Animal weights were determined post-anesthesia induction. […]
readout.label: concentration at 0 min (ng/mL)
Write it as a number; the unit ng/mL goes unstated.

Query :: Which concentration at 0 min value belongs to CN(C)c1cc(NC(=O)CNC(C)(C)C)c(O)c2c1C[C@H]1C[C@H]3[C@H](N(C)C)C(O)=C(C(N)=O)C(=O)[C@@]3(O)C(O)=C1C2=O [Tigecycline] ?
Result :: 0

---

- measurement.notes: Tigecycline plasma PK and % F after PO enteric-coated capsule in dogs
- Type: in vivo, Beagle dogs
- particulars: female, beagle, dog, plasma, po, 30 mg, Tigecycline Plasma Concentration, Time (min) 4.5; PO 30 mg enteric-coated capsule with 500 mg CA and 100 mg LLC, SC430; mean
readout.label: concentration at […]

Query :: Bench note: what concentration at […] did CN(C)c1cc(NC(=O)CNC(C)(C)C)c(O)c2c1C[C@H]1C[C@H]3[C@H](N(C)C)C(O)=C(C(N)=O)C(=O)[C@@]3(O)C(O)=C1C2=O [Tigecycline] show?
Result :: 0.0335 µg/mL
